- Tested on: S. aureus 4220
- MEASUREMENT_NOTES: MIC, double dilution method, S. aureus 4220
- Type: cell-based
- CONDITION_LABEL: Staphylococcus aureus, 4220, 24 h
PROPERTY_LABEL: log10 MIC (log10 of the value in µg/mL)

1) CN1C(=O)/C(=C(\O)c2ccccc2)c2ccccc21 [Compound 10b] ... 1.51
2) Cc1cccc2c1N(C)C(=O)/C2=C(\O)c1ccc(Cl)cc1 [Compound 10f] ... 0.60
3) CN1C(=O)/C(=C(\O)c2ccc(Cl)cc2)c2ccccc21 [Compound 10e] ... 0.90
4) CN1C(=O)/C(=C(\O)c2ccc(Br)cc2)c2ccccc21 [Compound 10i] ... 1.20
5) CN1C(=O)/C(=C(\O)c2ccc(F)cc2)c2ccccc21 [Compound 10d] ... 1.20
6) Cc1ccc(/C(O)=C2/C(=O)N(C)c3ccccc32)cc1 [Compound 10c] ... 0.90
7) CCCN1C(=O)/C(=C(\O)c2ccc(Cl)cc2)c2ccccc21 [Compound 10h] ... 0.00
8) CN1C(=O)/C(=C(\O)c2ccc(Cl)cc2)c2cccc(Br)c21 [Compound 10g] ... -0.30

----------
Catalogue of IC50 at 48 h values
- MEASUREMENT_NOTES: Cytotoxicity, MTT assay, L-02
- Assay type: cell-based
- CONDITION_LABEL: human, L-02 cells (normal liver cell line), 48 h incubation
PROPERTY_LABEL: IC50 at 48 h

1) CN1C(=O)/C(=C(\O)c2ccc(Cl)cc2)c2cccc(Br)c21 [Compound 10g] ... > 100 µM
2) Cc1cccc2c1N(C)C(=O)/C2=C(\O)c1ccc(Cl)cc1 [Compound 10f] ... > 100 µM
3) CCCN1C(=O)/C(=C(\O)c2ccc(Cl)cc2)c2ccccc21 [Compound 10h] ... 53.5 µM

----------
- Test system: P. aeruginosa CMCC 10211
- MEASUREMENT_NOTES: MIC, double dilution method, P. aeruginosa CMCC 10211
- Assay type: cell-based
- CONDITION_LABEL: Pseudomonas aeruginosa, CMCC10211; P. aeruginosa CMCC 10211, Gram-negative; 24 h culture; read-out: MIC
Catalogue of MIC values
PROPERTY_LABEL: MIC (µg/mL)

1) COc1cccc2c1N(C)C(=O)/C2=C(/C)O [Compound 5o] ... 64
2) C/C(O)=C1/C(=O)N(C)c2cc(C)ccc21 [Compound 5c] ... 64

----------
- System: P. aeruginosa CMCC 10211
- MEASUREMENT_NOTES: MIC, double dilution method, P. aeruginosa CMCC 10211
- Assay type: cell-based
- CONDITION_LABEL: Pseudomonas aeruginosa, CMCC10211; P. aeruginosa CMCC 10211, Gram-negative; 24 h culture; read-out: MIC
PROPERTY_LABEL: MIC

1. C/C(O)=C1/C(=O)N(C)c2ccc(F)cc21 ... > 64 µg/mL
2. C/C(O)=C1/C(=O)N(C)c2c(Br)cccc21 ... > 64 µg/mL
3. OC(Cn1cncn1)(Cn1cncn1)c1ccc(F)cc1F [Flu, Fluconazole, reference compound] ... > 64 µg/mL
4. CCCN1C(=O)/C(=C(/C)O)c2ccccc21 ... > 64 µg/mL
5. C/C(O)=C1/C(=O)N(C)c2cc(F)ccc21 ... > 64 µg/mL
6. CCN1C(=O)/C(=C(/C)O)c2ccccc21 ... > 64 µg/mL
7. C/C(O)=C1/C(=O)N(C)c2ccc(C#N)cc21 ... > 64 µg/mL
8. COc1ccc(CN2C(=O)/C(=C(/C)O)c3ccccc32)cc1 ... > 64 µg/mL
9. C/C(O)=C1/C(=O)N(C)c2ccc(C(F)(F)F)cc21 ... > 64 µg/mL
10. COc1ccc2c(c1)/C(=C(\C)O)C(=O)N2Cc1ccccc1 ... > 64 µg/mL
11. C/C(O)=C1/C(=O)N(Cc2ccccc2)c2ccccc21 ... > 64 µg/mL
12. C/C(O)=C1/C(=O)N(C)c2ccc(Cl)cc21 ... > 64 µg/mL
13. C/C(O)=C1/C(=O)N(C)c2ccccc21 ... 64 µg/mL
14. CN1C(=O)/C(=C(\O)c2cccs2)c2ccccc21 [Compound 10a] ... 64 µg/mL
15. C/C(O)=C1/C(=O)N(C)c2c(Cl)cccc21 ... 64 µg/mL
16. C/C(O)=C1/C(=O)N(C)c2c(C)cccc21 ... 64 µg/mL
17. C/C(O)=C1/C(=O)N(C)c2cccc(F)c21 ... > 64 µg/mL
18. COc1c(N2CCNC(C)C2)c(F)cc2c(=O)c(C(=O)O)cn(C3CC3)c12 (stereo not drawn) [Gati, Gatifloxacin, reference compound] ... 0.5 µg/mL
19. C/C(O)=C1/C(=O)N(C)c2cc(Br)ccc21 ... > 64 µg/mL
20. C/C(O)=C1/C(=O)N(C)c2ccc(C)cc21 ... 64 µg/mL
21. C/C(O)=C1/C(=O)N(C)c2cc(Cl)ccc21 ... > 64 µg/mL

----------
- Tested on: E. coli ATCC 25922
- MEASUREMENT_NOTES: MIC, double dilution method, E. coli ATCC 25922
- Assay type: cell-based
- CONDITION_LABEL: Escherichia coli, ATCC25922; E. coli ATCC 25922, Gram-negative; 24 h culture; read-out: MIC
PROPERTY_LABEL: MIC (µg/mL)

1. COc1c(N2CCNC(C)C2)c(F)cc2c(=O)c(C(=O)O)cn(C3CC3)c12 (centres unmarked) [Gati, Gatifloxacin, reference compound] ... 0.5
2. C/C(O)=C1/C(=O)N(C)c2cc(C)ccc21 [Compound 5c] ... 64

----------
- Test system: P. aeruginosa CMCC 10211
- MEASUREMENT_NOTES: MIC, double dilution method, P. aeruginosa CMCC 10211
- Type: cell-based
- CONDITION_LABEL: Pseudomonas aeruginosa, CMCC10211; P. aeruginosa CMCC 10211, Gram-negative; 24 h culture; read-out: MIC
PROPERTY_LABEL: MIC

1. C/C(O)=C1/C(=O)N(C)c2ccc(Br)cc21 ... > 64 µg/mL
2. C/C(O)=C1/C(=O)N(C)c2c(F)cccc21 ... > 64 µg/mL
3. C/C(O)=C1/C(=O)N(C)c2cc(C(F)(F)F)ccc21 ... > 64 µg/mL

----------
- System: E. coli ATCC 25922
- MEASUREMENT_NOTES: MIC, double dilution method, E. coli ATCC 25922
- Type: cell-based
- CONDITION_LABEL: Escherichia coli, ATCC25922; E. coli ATCC 25922, Gram-negative; 24 h culture; read-out: MIC
Catalogue of MIC values
PROPERTY_LABEL: MIC

1) C/C(O)=C1/C(=O)N(C)c2c(Br)cccc21 ... > 64 µg/mL
2) COc1ccc2c(c1)/C(=C(\C)O)C(=O)N2Cc1ccccc1 ... > 64 µg/mL
3) C/C(O)=C1/C(=O)N(C)c2cc(C(F)(F)F)ccc21 ... > 64 µg/mL

Source: paper PMC11596972
